# SUBJECT OF TEST: RORγ/γt (Mus musculus, UniProt P51450, T352K)
# Sequence (P51450 with tags, fused parts or gaps T352K): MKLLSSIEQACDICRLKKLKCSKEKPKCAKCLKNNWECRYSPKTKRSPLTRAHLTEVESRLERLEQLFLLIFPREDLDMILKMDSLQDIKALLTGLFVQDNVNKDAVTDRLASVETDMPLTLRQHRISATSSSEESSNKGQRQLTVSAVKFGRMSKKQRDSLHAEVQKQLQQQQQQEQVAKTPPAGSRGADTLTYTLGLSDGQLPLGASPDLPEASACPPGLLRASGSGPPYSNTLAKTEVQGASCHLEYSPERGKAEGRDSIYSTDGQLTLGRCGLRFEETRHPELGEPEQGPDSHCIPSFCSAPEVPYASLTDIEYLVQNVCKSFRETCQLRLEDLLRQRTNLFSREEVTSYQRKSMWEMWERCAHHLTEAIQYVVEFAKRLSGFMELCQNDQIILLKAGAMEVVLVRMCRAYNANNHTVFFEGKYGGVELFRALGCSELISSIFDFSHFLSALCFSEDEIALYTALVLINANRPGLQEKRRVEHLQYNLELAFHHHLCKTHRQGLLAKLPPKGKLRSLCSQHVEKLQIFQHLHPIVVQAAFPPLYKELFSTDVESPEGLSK
# PROTOCOL: RORγ/γt-luc reporter S2 cell assay / HTS (firefly luciferase)
With a cut-off of 3000 nM, any IC50 strictly below it is called 1 (yes); any IC50 meeting it or above is called 0 (no).

COMPOUND	ASSIGNED CLASS
COc1ccccc1CNC(=O)[C@@H](NC(=O)C1CCN(C(=O)[C@@H]2CCCN2C(=O)OC(C)(C)C)CC1)C(C)C	0 (no)
CCOC(=O)[C@@H]1[C@H]2COc3cc(OC)ccc3[C@@H]2N2C(=O)N(c3ccc(C)cc3)C(=O)[C@@]12C	0 (no)
CC(C)[C@@H](NC(=O)C1CCN(C(=O)[C@@H]2CCCN2C(=O)OC(C)(C)C)CC1)C(=O)NCc1ccc(F)cc1	0 (no)

Input line: Does `O=C(CCCN1C(=O)/C(=C/c2ccccc2Cl)SC1=S)Nc1cccnc1` have IC50 strictly under 3000 nM?
Output line: 1 (yes)

Input line: Does `COc1ccc(C(=O)/C=C/c2ccc(OC)cc2OC)c(O)c1` have IC50 strictly under 3000 nM?
Output line: 1 (yes)
